- MEASURED TARGET: RORγ ligand binding domain (LBD) (Homo sapiens (Human))
- ASSAY PROTOCOL: TR-FRET Activity Assay (ligand sensing assay, LANCE)
- MEASUREMENT PARAMETERS: TR-FRET, interaction of RORγ-LBD with coactivator peptide
Reported pIC50 (FRET) values are given for each entry in this list.

Below are worked cases with known answers.
> print(dat)
                                   molecule  endpoint.label  test.result
1  CC(C)(C)NC(=O)c1cc(-c2sc(C(=O)N[C@H]3C[C@H](C(=O)O)C3)nc2CC2CCCCC2)cc(C(C)(C)C)c1    pIC50 (FRET)  6.2/7.4/7.5
2  COC(c1nc(C(=O)N[C@H]2C[C@H](C(=O)O)C2)sc1-c1ccc(S(=O)(=O)NC(C)(C)C)c(Cl)c1Cl)C1CCCCC1 (some centres unmarked)    pIC50 (FRET)  6.0/7.3/7.2
3  CC1(c2cc(C(=O)NC3(C#N)CC3)cc(-c3sc(C(=O)NC4CCS(=O)(=O)CC4)nc3CC3CCCCC3)c2)CC1    pIC50 (FRET)  6.6/7.3/7.4
4  CC(C)(C)NS(=O)(=O)c1ccc(-c2sc(C(=O)N[C@H]3C[C@H](C(=O)O)C3)nc2CC2CCCCC2)c(F)c1C(F)F    pIC50 (FRET)  6.7/8.7/8.5
5  CC(C)(C)NS(=O)(=O)c1ccc(-c2sc(C(=O)NC3CSC3)nc2CC2CCCCC2)cc1C(C)(C)O    pIC50 (FRET)  7.3/7.9/8.0
6  O=C(c1nc(CC2CCCCC2)c(-c2ccc(S(=O)(=O)N3CCOCC3)c3ccccc23)s1)N1CC2(CCS(=O)(=O)CC2)C1    pIC50 (FRET)  6.2/6.4/6.3

For the molecule shown here, CC(C)(C)NS(=O)(=O)c1ccc(-c2oc(C(=O)N3CC4(CCSCC4)C3)nc2CC2CCCCC2)c2ccccc12 , give the reported pIC50 (FRET).
6.8/7.1/7.3

Also, CC(C)(C)NS(=O)(=O)c1ccc(-c2sc(C(=O)NC34CC(C(=O)O)(C3)C4)nc2CC2CCCCC2)c(Cl)c1Cl please.
6.8/7.8/7.9

Also, CC(C)(C)NS(=O)(=O)c1ccc(-c2sc(C(=O)NC3CCS(=O)(=O)CC3)nc2CC2CCCCC2)c2ccncc12 please.
6.3/7.9/7.9

====

- MEASURED TARGET: RORγ ligand binding domain (LBD) (Homo sapiens (Human))
- ASSAY PROTOCOL: TR-FRET Activity Assay (ligand sensing assay, LANCE)
- MEASUREMENT PARAMETERS: TR-FRET, interaction of RORγ-LBD with coactivator peptide
Reported pIC50 (FRET) values are given for each entry in this list.

Below are worked cases with known answers.
> print(dat)
                                   molecule                           measured.target  endpoint.label  test.result
1  CC(C)(C)NS(=O)(=O)c1ccc(-c2sc(C(=O)NC3CCC3)[n+]([O-])c2CC2CCCCC2)c2ccccc12 [Example 22/1]  RORγ ligand binding domain (LBD) (Homo sapiens (Human))    pIC50 (FRET)          6.4
2  CC(C)(C)NS(=O)(=O)c1ccc(-c2sc(C(=O)NC3CCS(=O)(=O)CC3)nc2CC2CC2)c(Cl)c1Cl [6/35]  RORγ ligand binding domain (LBD) (Homo sapiens (Human))    pIC50 (FRET)  7.0/7.5/7.5
3  CC(C)(C)c1cc(-c2sc(S(N)(=O)=O)nc2CC2CCCCC2)cc(C(C)(C)C)c1 [Example 4]  RORγ ligand binding domain (LBD) (Homo sapiens (Human))    pIC50 (FRET)  6.8/6.4/6.4
4  COC(c1nc(C(=O)N[C@H]2C[C@H](C(=O)O)C2)sc1-c1cc(C(C)(C)C)cc(C2(C)CC2)c1)C1CCCCC1 (stereo partly shown) [19/2]  RORγ ligand binding domain (LBD) (Homo sapiens (Human))    pIC50 (FRET)  6.1/7.0/7.0
5  CC(C)(C)NS(=O)(=O)c1ccc(-c2sc(C(=O)NCC3(C(=O)O)CCOCC3)nc2CC2CCCCC2)c(Cl)c1Cl [6/36]  RORγ ligand binding domain (LBD) (Homo sapiens (Human))    pIC50 (FRET)  6.3/7.4/7.4
6  CC(C)(C)NS(=O)(=O)c1ccc(-c2sc(C(=O)NC3CS(=O)(=O)C3)nc2CC2CCCCC2)cc1C(C)(C)O [15/3]  RORγ ligand binding domain (LBD) (Homo sapiens (Human))    pIC50 (FRET)  6.9/7.9/7.9
7  CC(C)(C)NS(=O)(=O)c1ccc(-c2sc(S(N)(=O)=O)nc2CC2CCCCC2)cc1C(F)(F)F [13/2]  RORγ ligand binding domain (LBD) (Homo sapiens (Human))    pIC50 (FRET)  6.5/6.7/6.8
8  Cc1c(C(=O)NC(C)(C)C)cc(-c2sc(C(=O)N[C@H]3C[C@H](C(=O)O)C3)nc2CC2CCCCC2)cc1C1(C)CC1 [19/7]  RORγ ligand binding domain (LBD) (Homo sapiens (Human))    pIC50 (FRET)  5.8/6.8/6.8
9  CC(C)(C)NS(=O)(=O)c1ccc(-c2sc(C(=O)N[C@H]3C[C@H](C(=O)O)C3)nc2CC2CCCCC2)cc1C(C)(C)O [7/17]  RORγ ligand binding domain (LBD) (Homo sapiens (Human))    pIC50 (FRET)  6.5/8.0/8.0

Now look at this entry.
Item CC(C)(O)CNC(=O)c1ncc(CC2CCCCC2)c(-c2cc(C(C)(C)C)cc(C(C)(C)C)c2)n1 [Example 207/1] with RORγ ligand binding domain (LBD) (Homo sapiens (Human)) - pIC50 (FRET)?
6.0/6.2/6.1

====

Reported pIC50 (REN) values are given for each entry in this list.
- MEASURED TARGET: RORγ (Homo sapiens)
- Sequence (P51449 whole entry, looked up, the tested form may be a part): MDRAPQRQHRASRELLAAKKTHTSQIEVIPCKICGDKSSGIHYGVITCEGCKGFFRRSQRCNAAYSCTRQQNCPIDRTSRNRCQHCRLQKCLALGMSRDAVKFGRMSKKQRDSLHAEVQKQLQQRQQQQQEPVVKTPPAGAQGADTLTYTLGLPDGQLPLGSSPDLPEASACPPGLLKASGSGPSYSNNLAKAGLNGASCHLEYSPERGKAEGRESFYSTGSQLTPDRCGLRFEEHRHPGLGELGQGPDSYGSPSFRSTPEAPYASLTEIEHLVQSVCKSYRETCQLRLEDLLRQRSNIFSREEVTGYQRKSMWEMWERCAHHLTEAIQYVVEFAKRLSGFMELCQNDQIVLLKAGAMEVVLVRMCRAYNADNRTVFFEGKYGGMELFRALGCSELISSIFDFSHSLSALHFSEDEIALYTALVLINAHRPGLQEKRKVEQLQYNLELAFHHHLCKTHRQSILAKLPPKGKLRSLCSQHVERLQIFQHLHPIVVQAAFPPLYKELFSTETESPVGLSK
- ASSAY PROTOCOL: RORγ Gal4 Reporter Gene Assay
- Assay type: cell-based

> print(dat)
                                   compound  endpoint.label  test.result
1  CC(C)(C)c1cc(-c2oc(C(=O)N[C@H]3C[C@H](C(=O)O)C3)nc2CC2CCCCC2)cc(C2(C)CC2)c1 [100/20]     pIC50 (REN)  6.0/6.8/7.0

For the compound shown here, COC(C)(C)c1cc(-c2sc(C(=O)N[C@H]3C[C@H](C(=O)O)C3)nc2CC2CCCCC2)cc(C2(C)CC2)c1 [9/5] , give the reported pIC50 (REN).
6.7/7.8/7.9

Also, CC(C)(C)NS(=O)(=O)c1ccc(-c2oc(C(=O)N3CC4(CCSCC4)C3)nc2CC2CCCCC2)c2ccccc12 [100/11] please.
6.8/7.1/7.3

====

- MEASURED TARGET: RORγ (Homo sapiens)
- ASSAY PROTOCOL: RORγ Gal4 Reporter Gene Assay
- Format: cell-based
- Protocol: Determination of a ligand mediated Gal4 promoter driven transactivation to quantify ligand binding to RORγ was performed as follows: DNA encoding three different RORγ protein fragments was cloned into vector pCMV-BD (Stratagene). Expression was under control of a CMV promoter and as fusion to the DNA-binding domain of the yeast protein GAL4. […]
ENDPOINT LABEL: pIC50 (REN)

> print(dat)
                            chemical.string  endpoint.label  test.result
1  CC(C)(C)NS(=O)(=O)c1ccc(-c2sc(C(=O)N[C@H]3C[C@H](C(=O)O)C3)nc2CC2CCCCC2)c(F)c1OC(F)(F)F     pIC50 (REN)  6.7/8.4/8.5
2  COC(=O)C(C)(C)CCNC(=O)c1nc(CC2CCCCC2)c(-c2cc(C(C)(C)C)cc(C3(C)CC3)c2)s1     pIC50 (REN)  6.7/6.2/6.3
3  CC(C)(C)NS(=O)(=O)c1ccc(-c2sc(C(=O)NC34CCC(C(=O)O)(CC3)CC4)nc2CC2CCCCC2)c2ccccc12     pIC50 (REN)  6.3/8.2/8.2

Now look at this entry.
For the compound shown here, CC(C)(C)NS(=O)(=O)c1ccc(-c2oc(C(=O)NC3CCOCC3)nc2CC2CCCCC2)cc1C(C)(C)C , give the reported pIC50 (REN).
5.9/6.3/6.3

====

- MEASURED TARGET: RORγ (Homo sapiens)
- ASSAY PROTOCOL: RORγ Gal4 Reporter Gene Assay
- Format: cell-based
- MEASUREMENT PARAMETERS: firefly (FF) luciferase, 293T cells; read-out: pIC50 (FF) (converted)
Reported IC50 values are given for each entry in this list.
Answer in nM, number only, no unit symbol.

Below are worked cases with known answers.
> print(dat)
                                   compound      measured.target  endpoint.label  test.result
1  CC(C)(C)NS(=O)(=O)c1ccc(-c2sc(C(=O)N[C@H]3C[C@H](C(=O)O)C3)nc2CC2CCC2)c(Cl)c1Cl [21/15]  RORγ (Homo sapiens)            IC50           20
2  CC(C)(C)c1cc(-c2nc(C(=O)N[C@H]3C[C@H](C(=O)O)C3)oc2CC2CCCCC2)cc(C2(C)CC2)c1 [103/2]  RORγ (Homo sapiens)            IC50          398
3  CC(C)(C)NS(=O)(=O)c1ccc(-c2sc(C(=O)N[C@H]3C[C@H](C(=O)O)C3)nc2CC2CCC2)c2ccccc12 [21/17]  RORγ (Homo sapiens)            IC50         7.94
4  O=C(N[C@H]1C[C@H](C(=O)O)C1)c1nc(CC2CCCCC2)c(-c2ccc(OCC(F)(F)F)c3ccccc23)s1 [7/22]  RORγ (Homo sapiens)            IC50          316

For the compound shown here, C[C@H](NS(=O)(=O)c1ccc(-c2sc(C(=O)NC3CCOCC3)nc2CC2CCCCC2)c2ccccc12)C(F)(F)F [6/12] , give the reported IC50.
2

src = patent US10301272B2
